Attribute: Biodistribution: Kidney
experiment: Biodistribution of radiotracers in normal mice; format: in vivo, mouse; conditions: normal male mice, 120 min
Please respond with the number in % dose/g and leave the unit unwritten.

• O=C(O)CC[C@H](NC(=O)N[C@@H](CCCCNC(=O)CCCCCNC(=O)CCc1ccc2c(c1)C[N+]13CC[N+]45CC(=O)[O][68Ga-3]14([O]C(=O)C3)([O]2)[O]c1ccc(CCC(=O)NCCNC(=O)CN2CCN(CC(=O)O)CCN(CC(=O)O)CCN(CC(=O)O)CC2)cc1C5)C(=O)O)C(=O)O (stereo partly shown) [[^68Ga]1g] = 95.0

Give the reported Biodistribution: Kidney for this compound. O=C(O)CCc1ccc2c(c1)C[N+]13CC[N+]45CC(=O)[O][68Ga-3]14([O]C(=O)C3)([O]2)[O]c1ccc(CCC(=O)NCC(=O)N[C@@H](Cc2ccc(OCC(=O)N[C@@H](Cc3ccccc3)C(=O)NCCCC[C@H](NC(=O)N[C@@H](CCC(=O)O)C(=O)O)C(=O)O)cc2)C(=O)O)cc1C5 (stereo partly shown) [[^68Ga]5b]
49.00

Tell me measured Biodistribution: Kidney for O=C(O)CCc1ccc2c(n1)C[N+]13CC[N+]45CC(=O)[O][68Ga-3]14([O]C(=O)C3)([O]2)[O]c1ccc(CCC(=O)NCCCCCC(=O)NCCCC[C@H](NC(=O)N[C@@H](CCC(=O)O)C(=O)O)C(=O)O)nc1C5 (stereo partly shown) [[^68Ga]2] please.
26.9

Quickly give me recorded Biodistribution: Kidney for O=C(O)CCc1ccc2c(c1)C[N+]13CC[N+]45CC(=O)[O][68Ga-3]14([O]C(=O)C3)([O]2)[O]c1ccc(CCC(=O)NCCCCCC(=O)NCCCC[C@H](NC(=O)N[C@@H](CCC(=O)O)C(=O)O)C(=O)O)cc1C5 (stereo partly shown) [[^68Ga]1a, reference compound]
83.9
